Target: T1, Human soluble IL6-R (human, UniProt P08887 20-358)
T1 construct: Bought soluble receptor; biotinylated in some Alphascreen assays; also called sIL6-R; hIL-6R
T1 sequence (looked up): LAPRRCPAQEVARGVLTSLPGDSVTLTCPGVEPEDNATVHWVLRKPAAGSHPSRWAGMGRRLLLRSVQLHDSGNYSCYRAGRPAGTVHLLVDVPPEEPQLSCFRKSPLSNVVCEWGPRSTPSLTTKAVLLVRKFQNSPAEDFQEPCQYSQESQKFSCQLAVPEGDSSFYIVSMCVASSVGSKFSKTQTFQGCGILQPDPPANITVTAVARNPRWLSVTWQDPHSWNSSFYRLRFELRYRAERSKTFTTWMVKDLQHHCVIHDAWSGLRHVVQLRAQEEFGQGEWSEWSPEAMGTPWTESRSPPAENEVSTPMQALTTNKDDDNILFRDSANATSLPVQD
Assay: SPR (Biacore 3000), IL6-R on CM5 chip
pKd: −log10 of the molar value.
assay_metric: pKd

binder | numeric_value
IL6R08 (VHH, also called PMP34A12; PMP 34 A12) VHH: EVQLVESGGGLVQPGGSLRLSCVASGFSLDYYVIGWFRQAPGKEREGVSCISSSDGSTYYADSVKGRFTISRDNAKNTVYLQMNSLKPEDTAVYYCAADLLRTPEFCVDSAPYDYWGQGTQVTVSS | 7.99
IL6R10 (VHH, also called PMP35C10; PMP 35 C10) VHH: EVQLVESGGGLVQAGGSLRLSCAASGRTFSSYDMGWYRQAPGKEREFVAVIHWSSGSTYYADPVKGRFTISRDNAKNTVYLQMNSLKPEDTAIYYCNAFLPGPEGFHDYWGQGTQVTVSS | 8.90
